# assay_method_text: In vivo pharmacokinetic study, intraperitoneal
# Parameters: species or system Wistar rats
# condition_summary: both sexes, rat, plasma, ip; 5 mg/kg intraperitoneal, single dose; Wistar rats, males + females (mean ± SD)
endpoint_name: AUC(0-inf)

Item: C=CCc1cc(OC)c(OCc2ccc(OC)cc2)c(Oc2ccc(CN3CCOCC3)cc2OC)c1 | AUC(0-inf): 1270 ng·h/mL

----------
# assay_method_text: In vivo pharmacokinetic study, intraperitoneal
# Set-up: species or system Wistar rats
# condition_summary: Wistar, rat, plasma, ip; 5 mg/kg intraperitoneal; female rats
endpoint_name: Cmax (ng/mL)
Just the number please, in ng/mL, no unit attached.

The recorded Cmax for C=CCc1cc(OC)c(OCc2ccc(OC)cc2)c(Oc2ccc(CN3CCOCC3)cc2OC)c1 is 200

----------
# assay_method_text: In vivo pharmacokinetic study, intraperitoneal
# Parameters: species or system Wistar rats
# condition_summary: Wistar, rat, plasma, ip; 5 mg/kg intraperitoneal; male rats
endpoint_name: MRT (h)
Numbers only; they are read as h.

The recorded MRT for entry C=CCc1cc(OC)c(OCc2ccc(OC)cc2)c(Oc2ccc(CN3CCOCC3)cc2OC)c1 equals 41.1

----------
# assay_method_text: In vivo pharmacokinetic study, intraperitoneal
# Design: species or system Wistar rats
# condition_summary: Wistar, rat, plasma, ip; 5 mg/kg intraperitoneal; female rats
endpoint_name: AUC(0-t) (ng·h/mL)
Entry rule: numbers only, all in ng·h/mL.

Record C=CCc1cc(OC)c(OCc2ccc(OC)cc2)c(Oc2ccc(CN3CCOCC3)cc2OC)c1 . Reported AUC(0-t): 980

----------
# assay_method_text: In vivo pharmacokinetic study, intraperitoneal
# Parameters: species or system Wistar rats
# condition_summary: female, Wistar, rat, plasma, ip, 5 mg/kg, 5 mg/kg intraperitoneal; female rats
endpoint_name: half-life (h)
// units = h; emit number, no label

Value of measured half-life for the entry C=CCc1cc(OC)c(OCc2ccc(OC)cc2)c(Oc2ccc(CN3CCOCC3)cc2OC)c1 : 10.7

----------
# assay_method_text: In vivo pharmacokinetic study, intraperitoneal
# Parameters: species or system Wistar rats
# condition_summary: Wistar, rat, plasma, ip; 5 mg/kg intraperitoneal; male rats
endpoint_name: Cmax

Item: C=CCc1cc(OC)c(OCc2ccc(OC)cc2)c(Oc2ccc(CN3CCOCC3)cc2OC)c1 | Cmax: 100 ng/mL

----------
# assay_method_text: In vivo pharmacokinetic study, intraperitoneal
# Set-up: species or system Wistar rats
# condition_summary: both sexes, rat, plasma, ip; 5 mg/kg intraperitoneal, single dose; Wistar rats, males + females (mean ± SD)
endpoint_name: MRT
Could you give the number and then its unit, please?

Per the record, C=CCc1cc(OC)c(OCc2ccc(OC)cc2)c(Oc2ccc(CN3CCOCC3)cc2OC)c1 has MRT of 26.9 h

----------
# assay_method_text: In vivo pharmacokinetic study, intraperitoneal
# Set-up: species or system Wistar rats
# condition_summary: Wistar, rat, plasma, ip; 5 mg/kg intraperitoneal; female rats
endpoint_name: Tmax (min)
The answer is to be given in min; state only the numeric part.

Reported Tmax for C=CCc1cc(OC)c(OCc2ccc(OC)cc2)c(Oc2ccc(CN3CCOCC3)cc2OC)c1 was 30

----------
# assay_method_text: In vivo pharmacokinetic study, intraperitoneal
# Set-up: species or system Wistar rats
# condition_summary: male, Wistar, rat, plasma, ip, 5 mg/kg, 5 mg/kg intraperitoneal; male rats
# Description: The detection and quantification of compound 1 in the blood matrices were performed after sample processing, using a liquid-liquid extraction methodology. First, 100 µL of plasma was enriched with 10 µL of PI (0.8 µg/mL). […] Compound 1 (5 mg/kg) was administered (10 mL/kg in saline-sodium-chloride-0.9%) by intraperitoneal route, to six Wistar rats. […] Plasma samples were prepared as described in the previous section and analyzed by HPLC. […]
endpoint_name: half-life (h)
Numeric answer only, unit h assumed.

Lab book: half-life of C=CCc1cc(OC)c(OCc2ccc(OC)cc2)c(Oc2ccc(CN3CCOCC3)cc2OC)c1 [compound 1] noted as 31.4

----------
# assay_method_text: In vivo pharmacokinetic study, intraperitoneal
# Parameters: species or system Wistar rats
# condition_summary: Wistar, rat, plasma, ip; 5 mg/kg intraperitoneal; male rats
endpoint_name: Tmax (h)
Report only the number, with the unit h understood.

Reported Tmax ( C=CCc1cc(OC)c(OCc2ccc(OC)cc2)c(Oc2ccc(CN3CCOCC3)cc2OC)c1 [compound 1] ) = 1.5

----------
# assay_method_text: In vivo pharmacokinetic study, intraperitoneal
# Design: species or system Wistar rats
# condition_summary: both sexes, Wistar, rat, plasma, ip, 5 mg/kg, 5 mg/kg intraperitoneal, single dose; Wistar rats, males + females (mean ± SD)
endpoint_name: half-life (h)
Response body: numeric value in h, unit text excluded.

molecule C=CCc1cc(OC)c(OCc2ccc(OC)cc2)c(Oc2ccc(CN3CCOCC3)cc2OC)c1 , half-life observed: 21

----------
# assay_method_text: In vivo pharmacokinetic study, intraperitoneal
# Design: species or system Wistar rats
# condition_summary: Wistar, rat, plasma, ip; 5 mg/kg intraperitoneal; female rats
endpoint_name: MRT (h)
Give your result in h as a bare value.

Consider C=CCc1cc(OC)c(OCc2ccc(OC)cc2)c(Oc2ccc(CN3CCOCC3)cc2OC)c1 [compound 1] . Its measured MRT is 12.8

----------
# assay_method_text: In vivo pharmacokinetic study, intraperitoneal
# Parameters: species or system Wistar rats
# condition_summary: both sexes, rat, plasma, ip; 5 mg/kg intraperitoneal, single dose; Wistar rats, males + females (mean ± SD)
endpoint_name: AUC(0-t) (ng·h/mL)
The response must be a number in ng·h/mL with no trailing unit.

Query C=CCc1cc(OC)c(OCc2ccc(OC)cc2)c(Oc2ccc(CN3CCOCC3)cc2OC)c1 [compound 1] yields AUC(0-t) of 810

----------
# assay_method_text: In vivo pharmacokinetic study, intraperitoneal
# Design: species or system Wistar rats
# condition_summary: both sexes, rat, plasma, ip; 5 mg/kg intraperitoneal, single dose; Wistar rats, males + females (mean ± SD)
endpoint_name: Tmax (h)
API: value field is a number in h; no unit string.

Please fill in: Tmax reported for C=CCc1cc(OC)c(OCc2ccc(OC)cc2)c(Oc2ccc(CN3CCOCC3)cc2OC)c1 = 1
